System Name: Protein cereblon/F-box-like/WD repeat-containing protein TBL1X (Homo sapiens) (UniProt Q96SW2+O60907)
Sequence (O60907 whole entry, looked up): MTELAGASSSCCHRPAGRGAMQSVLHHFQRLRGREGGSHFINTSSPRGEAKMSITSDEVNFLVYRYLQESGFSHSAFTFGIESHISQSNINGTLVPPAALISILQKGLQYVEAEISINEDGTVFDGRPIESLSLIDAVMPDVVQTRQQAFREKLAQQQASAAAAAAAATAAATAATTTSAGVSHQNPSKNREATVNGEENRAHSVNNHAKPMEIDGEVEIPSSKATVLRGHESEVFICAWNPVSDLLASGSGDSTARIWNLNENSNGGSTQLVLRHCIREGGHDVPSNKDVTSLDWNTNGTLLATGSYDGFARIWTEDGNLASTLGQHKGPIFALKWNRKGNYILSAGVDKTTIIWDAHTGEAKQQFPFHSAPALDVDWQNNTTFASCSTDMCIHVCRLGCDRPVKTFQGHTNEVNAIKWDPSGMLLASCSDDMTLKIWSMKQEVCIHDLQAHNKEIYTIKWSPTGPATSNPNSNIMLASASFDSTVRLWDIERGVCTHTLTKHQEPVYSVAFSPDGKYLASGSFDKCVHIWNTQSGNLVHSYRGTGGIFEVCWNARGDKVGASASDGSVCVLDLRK
Sequence (Q96SW2 whole entry, looked up): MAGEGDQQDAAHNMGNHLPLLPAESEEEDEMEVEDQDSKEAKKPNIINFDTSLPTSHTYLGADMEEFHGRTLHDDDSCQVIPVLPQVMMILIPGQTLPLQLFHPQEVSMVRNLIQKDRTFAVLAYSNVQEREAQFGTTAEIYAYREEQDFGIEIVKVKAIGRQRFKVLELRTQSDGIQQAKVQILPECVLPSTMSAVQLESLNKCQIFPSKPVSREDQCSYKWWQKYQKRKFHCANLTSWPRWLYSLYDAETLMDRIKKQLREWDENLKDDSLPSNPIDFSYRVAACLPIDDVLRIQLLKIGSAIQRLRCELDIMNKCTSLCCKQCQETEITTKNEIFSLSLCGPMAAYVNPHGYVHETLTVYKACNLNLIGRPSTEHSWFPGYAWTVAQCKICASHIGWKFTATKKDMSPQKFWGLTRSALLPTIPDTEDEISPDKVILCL
Test Protocol: PROTAC activity at CRBN/TBL1X in human Ri-1 cells assessed as […] TBL1X level at 0.2 uM incubated for 6 hrs by Western blotting analysis (reference value: 1)
Type: cell-based
Result Type: fold change (FC)

[a] CC1CC(C)CN(S(=O)(=O)c2ccc3c(c2)C(=NO)c2cc(S(=O)(=O)N4CC(C)CC(C)C4)ccc2C3=NOCCCNC(=O)CCCCCCNc2cccc3c2C(=O)N(C2CCC(=O)NC2=O)C3=O)C1 (centres undefined)
[b] CC1CC(C)CN(S(=O)(=O)c2ccc3c(c2)/C(=N\O)c2cc(S(=O)(=O)N4CCN(C(=O)CCOCCOCCNc5cccc6c5C(=O)N(C5CCC(=O)NC5=O)C6=O)CC4)ccc2/C3=N\O)C1 (centres undefined)
INPUT: Select the item with the higher value of fold change (FC) from the options a and b listed. # reply format: chosen label
OUTPUT: b

###

System: Pfeiffer
Test Protocol: Cytotoxicity against human Pfeiffer cells assessed as reduction in cell viability incubated for 72 hrs by MTS assay
Type: functional, cell-based
Result Type: IC50 (nM)
Answer with a number only, understood to be in nM.

Compound	Quantity Unit	IC50
CC1CC(C)CN(S(=O)(=O)c2ccc3c(c2)/C(=N/O)c2cc(S(=O)(=O)N4CCN(C(=O)CCCCCCNc5cccc6c5C(=O)N(C5CCC(=O)NC5=O)C6=O)CC4)ccc2/C3=N\O)C1 (stereo not given)	nM	343
CC1CC(C)CN(S(=O)(=O)c2ccc3c(c2)C(=NO)c2cc(S(=O)(=O)N4CC(C)CC(C)C4)ccc2C3=NOCCCNC(=O)CCNc2cccc3c2C(=O)N(C2CCC(=O)NC2=O)C3=O)C1 (stereo not given)	nM	189

INPUT: Consider the compound shown here: CC1CC(C)CN(S(=O)(=O)c2ccc3c(c2)/C(=N/O)c2cc(S(=O)(=O)N4CCN(C(=O)CCCCCCCCCCNc5cccc6c5C(=O)N(C5CCC(=O)NC5=O)C6=O)CC4)ccc2/C3=N\O)C1 (stereo not given) What is its recorded IC50?
OUTPUT: 2500

###

System Name: Protein cereblon/F-box-like/WD repeat-containing protein TBL1X (Homo sapiens) (UniProt Q96SW2+O60907)
Test Protocol: PROTAC activity at CRBN/TBL1X in human Ri-1 cells assessed as […] TBL1X level at 0.04 uM incubated for 6 hrs by Western blotting analysis (reference value: 1)
Assay type: cell-based
Result Type: fold change (FC)

Recorded results for 8 molecules are shown here.
Molecule	Result Type	Reading
CC1CC(C)CN(S(=O)(=O)c2ccc3c(c2)C(=NO)c2cc(S(=O)(=O)N4CC(C)CC(C)C4)ccc2C3=NOCCCNC(=O)CCOCCNc2cccc3c2C(=O)N(C2CCC(=O)NC2=O)C3=O)C1 (stereo not given)	fold change (FC)	0.47
CC1CC(C)CN(S(=O)(=O)c2ccc3c(c2)/C(=N/O)c2cc(S(=O)(=O)N4CCN(C(=O)CCCCCCNc5cccc6c5C(=O)N(C5CCC(=O)NC5=O)C6=O)CC4)ccc2/C3=N\O)C1 (stereo not given)	fold change (FC)	1.03
CC1CC(C)CN(S(=O)(=O)c2ccc3c(c2)C(=NO)c2cc(S(=O)(=O)N4CC(C)CC(C)C4)ccc2C3=NOCCCNC(=O)CCOCCOCCOCCNc2cccc3c2C(=O)N(C2CCC(=O)NC2=O)C3=O)C1 (stereo not given)	fold change (FC)	0.49
CC1CC(C)CN(S(=O)(=O)c2ccc3c(c2)/C(=N/O)c2cc(S(=O)(=O)N4CCN(C(=O)CCOCCNc5cccc6c5C(=O)N(C5CCC(=O)NC5=O)C6=O)CC4)ccc2/C3=N\O)C1 (stereo not given)	fold change (FC)	1.11
CC1CC(C)CN(S(=O)(=O)c2ccc3c(c2)/C(=N/O)c2cc(S(=O)(=O)N4CCN(C(=O)CCNc5cccc6c5C(=O)N(C5CCC(=O)NC5=O)C6=O)CC4)ccc2/C3=N\O)C1 (stereo not given)	fold change (FC)	1.3
CC1CC(C)CN(S(=O)(=O)c2ccc3c(c2)/C(=N\O)c2cc(S(=O)(=O)N4CCN(C(=O)CCOCCOCCOCCNc5cccc6c5C(=O)N(C5CCC(=O)NC5=O)C6=O)CC4)ccc2/C3=N\O)C1 (stereo not given)	fold change (FC)	1.02
CC1CC(C)CN(S(=O)(=O)c2ccc3c(c2)C(=NO)c2cc(S(=O)(=O)N4CC(C)CC(C)C4)ccc2C3=NOCCCNC(=O)CCCCCCCCCCNc2cccc3c2C(=O)N(C2CCC(=O)NC2=O)C3=O)C1 (stereo not given)	fold change (FC)	0.43
CC1CC(C)CN(S(=O)(=O)c2ccc3c(c2)/C(=N\O)c2cc(S(=O)(=O)N4CCN(C(=O)CCOCCOCCNc5cccc6c5C(=O)N(C5CCC(=O)NC5=O)C6=O)CC4)ccc2/C3=N\O)C1 (stereo not given)	fold change (FC)	0.99

[a] CC1CC(C)CN(S(=O)(=O)c2ccc3c(c2)C(=NO)c2cc(S(=O)(=O)N4CC(C)CC(C)C4)ccc2C3=NOCCCNC(=O)CCNc2cccc3c2C(=O)N(C2CCC(=O)NC2=O)C3=O)C1 (stereo not given)
[b] CC1CC(C)CN(S(=O)(=O)c2ccc3c(c2)/C(=N/O)c2cc(S(=O)(=O)N4CCN(C(=O)CCCCNc5cccc6c5C(=O)N(C5CCC(=O)NC5=O)C6=O)CC4)ccc2/C3=N\O)C1 (stereo not given)
INPUT: Select the item with the higher value of fold change (FC) from the options a and b listed. # reply format: chosen label
OUTPUT: b
(b: 0.94, a: 0.56)

###

System Name: Protein cereblon/F-box-like/WD repeat-containing protein TBL1X (Homo sapiens) (UniProt Q96SW2+O60907)
Test Protocol: PROTAC activity at CRBN/TBL1X in human Ri-1 cells assessed as […] TBL1X level at 0.2 uM incubated for 6 hrs by Western blotting analysis (reference value: 1)
Assay type: cell-based
Result Type: fold change (FC)

Compound	fold change (FC)
CC1CC(C)CN(S(=O)(=O)c2ccc3c(c2)C(=NO)c2cc(S(=O)(=O)N4CC(C)CC(C)C4)ccc2C3=NOCCCNC(=O)CCCCCCCCCCNc2cccc3c2C(=O)N(C2CCC(=O)NC2=O)C3=O)C1 (stereo not given)	0.44

[A] CC1CC(C)CN(S(=O)(=O)c2ccc3c(c2)C(=NO)c2cc(S(=O)(=O)N4CC(C)CC(C)C4)ccc2C3=NOCCCNC(=O)CCOCCNc2cccc3c2C(=O)N(C2CCC(=O)NC2=O)C3=O)C1 (stereo not given)
[B] CC1CC(C)CN(S(=O)(=O)c2ccc3c(c2)/C(=N/O)c2cc(S(=O)(=O)N4CCN(C(=O)CCOCCNc5cccc6c5C(=O)N(C5CCC(=O)NC5=O)C6=O)CC4)ccc2/C3=N\O)C1 (stereo not given)
[C] CC1CC(C)CN(S(=O)(=O)c2ccc3c(c2)/C(=N/O)c2cc(S(=O)(=O)N4CCN(C(=O)CCCCNc5cccc6c5C(=O)N(C5CCC(=O)NC5=O)C6=O)CC4)ccc2/C3=N\O)C1 (stereo not given)
INPUT: Falling order of fold change (FC), please. Reply with the labels, ordered as the question asks.
OUTPUT: B, C, A

###

System Name: Protein cereblon/F-box-like/WD repeat-containing protein TBL1X (Homo sapiens) (UniProt Q96SW2+O60907)
Test Protocol: PROTAC activity at CRBN/TBL1X in human Ri-1 cells assessed as […] TBL1X level at 5 uM incubated for 6 hrs by Western blotting analysis (reference value: 1)
Format: cell-based
Result Type: fold change (FC)

Recorded results for 2 compounds are shown here.
Compound	fold change (FC)
CC1CC(C)CN(S(=O)(=O)c2ccc3c(c2)/C(=N/O)c2cc(S(=O)(=O)N4CCN(C(=O)CCCCCCNc5cccc6c5C(=O)N(C5CCC(=O)NC5=O)C6=O)CC4)ccc2/C3=N\O)C1 (centres undefined)	1.51
CC1CC(C)CN(S(=O)(=O)c2ccc3c(c2)C(=NO)c2cc(S(=O)(=O)N4CC(C)CC(C)C4)ccc2C3=NOCCCNC(=O)CCOCCNc2cccc3c2C(=O)N(C2CCC(=O)NC2=O)C3=O)C1 (centres undefined)	0.48

[1] CC1CC(C)CN(S(=O)(=O)c2ccc3c(c2)C(=NO)c2cc(S(=O)(=O)N4CC(C)CC(C)C4)ccc2C3=NOCCCNC(=O)CCCCCCNc2cccc3c2C(=O)N(C2CCC(=O)NC2=O)C3=O)C1 (centres undefined)
[2] CC1CC(C)CN(S(=O)(=O)c2ccc3c(c2)C(=NO)c2cc(S(=O)(=O)N4CC(C)CC(C)C4)ccc2C3=NOCCCNC(=O)CCOCCOCCNc2cccc3c2C(=O)N(C2CCC(=O)NC2=O)C3=O)C1 (centres undefined)
INPUT: Select the item with the higher value of fold change (FC) from the options 1 and 2 listed. # reply format: chosen label
OUTPUT: 2

###

System Name: Protein cereblon/F-box-like/WD repeat-containing protein TBL1X (Homo sapiens) (UniProt Q96SW2+O60907)
Test Protocol: PROTAC activity at CRBN/TBL1X in human Ri-1 cells assessed as […] TBL1X level at 0.04 uM incubated for 6 hrs by Western blotting analysis (reference value: 1)
Format: cell-based
Result Type: fold change (FC)

Recorded results for 2 molecules are shown here.
Molecule	fold change (FC)
CC1CC(C)CN(S(=O)(=O)c2ccc3c(c2)C(=NO)c2cc(S(=O)(=O)N4CC(C)CC(C)C4)ccc2C3=NOCCCNC(=O)CCCCNc2cccc3c2C(=O)N(C2CCC(=O)NC2=O)C3=O)C1 (centres undefined)	0.27
CC1CC(C)CN(S(=O)(=O)c2ccc3c(c2)C(=NO)c2cc(S(=O)(=O)N4CC(C)CC(C)C4)ccc2C3=NOCCCNC(=O)CCCCCCNc2cccc3c2C(=O)N(C2CCC(=O)NC2=O)C3=O)C1 (centres undefined)	0.74

[1] CC1CC(C)CN(S(=O)(=O)c2ccc3c(c2)C(=NO)c2cc(S(=O)(=O)N4CC(C)CC(C)C4)ccc2C3=NOCCCNC(=O)CCOCCOCCNc2cccc3c2C(=O)N(C2CCC(=O)NC2=O)C3=O)C1 (centres undefined)
[2] CC1CC(C)CN(S(=O)(=O)c2ccc3c(c2)/C(=N/O)c2cc(S(=O)(=O)N4CCN(C(=O)CCCCCCCCCCNc5cccc6c5C(=O)N(C5CCC(=O)NC5=O)C6=O)CC4)ccc2/C3=N\O)C1 (centres undefined)
INPUT: Select the item with the higher value of fold change (FC) from the options 1 and 2 listed. # reply format: chosen label
OUTPUT: 2
(2: 1.04, 1: 0.35)

The origin of these recorded values is ChEMBL document CHEMBL6071187.
